molecular target: pm8, modified CCR8 related peptide (human, sulfated tyrosines at Y15, Y16 and Y17); test: ELISA on coated CCR8 peptide (500 ng/mL), OD [cont.]
Sequence (peptide, as listed by the source): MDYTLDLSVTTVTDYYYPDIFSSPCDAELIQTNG
Measured property: binding result

1) anti-CCR8 mAb 2-2 (antibody, V domains shown) VH: QVQLKESGPGLVAPSQSLSITCTVSGLSMNDYVVTWIRQPPGKGLEWLGVIWGGGNTYYNSDLKSRLSITKDNSKSQVFFKMSSLQTDDTAVYYCARRHRDYALDYWGQGISVTVSS VL: DVVMTQTPLSLPVSLGDQASISCRSSQSLVYSNGNTYLHWYLQKPGQSPKLLIYKVSNRFSGVPDRFSGSGSGTDFTLKISRVEAEDLGVYFCSQSTYVPPTFGGGTKLEIK	binds
2) anti-CCR8 mAb 2-3 (antibody, V domains shown) VH: EVQLQQSGPELLKPGTSVKISCTTSGYTFSDYTLHWVKQSHGKSLEWIGGITPKNGDTRYDPRFKDKATLTIDKSSSAAYMELRSLTSEDSAVYYCARVARFYGVSPYAMDYWGQGASVTVSS VL: DVVMTQTPLSLPVSLGDQASISCRCTQSLLHSNGDTYLHWYLQKPGQSPKLLIYKVSNRFSGVPDRFSGSGSGTDFTLEITRVEAEDLGVYFCSQTTHVPYTFGGGTKLEIK	binds
3) humanized anti-CCR8 mAb 2-15 (antibody, human IgG1, kappa, V domains shown, Humanized, human IgG1 / kappa) VH: QVQLQQSGPEVVKPGASVKVSCKTSGYTFTEYTIHWVRQSHGQSLEWVGGINPNNGNTRYDQKFKGRVTITIDKSSSTAYMELRSLTSEDTAVYYCARVARSSGSGPYAMDYWGQGTTVTVSS VL: DVVMTQSPLSLPVTLGDQASISCRCSQSLLHTNGDTYLHWYLQRPGQSPRLLIYKVSNRFSGVPDRFSGSGSGTDFTLKISRVEAEDVGVYFCSQSTHVPYTFGGGTKVEIKR	binds
